For each record, write down the corresponding inhibition.
target: Serine/threonine-protein kinase PAK 6 (Homo sapiens); conditions: at 1 µM;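 also: values are mean percent inhibition of PAK6 kinase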
Answers are plain numbers, in %.

For every listed record, write down its inhibition.
1. c1cnn2ncc(-c3ccnc(Nc4ccc5c(c4)OCCO5)n3)c2c1
2. Nc1ncnc2occ(-c3ccc(NC(=O)Nc4cc(C(F)(F)F)cc(C(F)(F)F)c4)cc3)c12

Result ::
1. 9.62
2. 7.94

For every listed record, write down its inhibition.
1. CCN1CCC(CC(=O)Nc2n[nH]c3nc(-c4cccs4)c(Br)cc23)CC1
2. O=C1NC(=O)C(c2ccccc2Cl)=C1Nc1cccc(O)c1
3. CNC(=O)c1cncc(/C=C/c2c(Cl)cccc2Cl)c1
4. Fc1cccc(COc2ccc(Nc3ncnc4sc(-c5cccs5)cc34)cc2Cl)c1
5. O=C(Nc1n[nH]c2nc(-c3ccco3)c(Br)cc12)C1CC1
6. COc1ccc(COc2ccc(Cc3cnc(N)nc3N)cc2OC)cc1
7. COc1ccc2cc(-c3c(-c4ccncc4)nc(-c4ccc([S+](C)[O-])cc4)n3C)ccc2c1 (stereo not given)
8. Cc1nnc(-c2ccc(C)c(-c3ccc(C(=O)Nc4cccc(C#N)c4)cc3)c2)o1

Result ::
1: -1.76; 2: 11.2; 3: -7.96; 4: -8.25; 5: 0.72; 6: -2.29; 7: -0.4; 8: -7.37

Reference source: ChEMBL document CHEMBL1961873
